B1: TOR1AIP2 (parent)
chain: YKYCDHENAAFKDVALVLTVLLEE

Variants of: B1
PROCEDURE SUMMARY: protein stability index of a GFP-peptide fusion (GPS, HEK-293T) (PSI 1-6); higher = more stable;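 also: lentivirally expressed fusions sorted by FACS into six bins by GFP to DsRed ratio, PSI derived from sequencing read proportions per bin multiplied by bin number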
PARTICULARS: c terminus: a fixed tail appended
Documented protein stability index across a set of variants
Keep it simple and answer with nothing but the number.

Recorded protein stability index for YKYCDHENAAFKDVALNLTVLLEE , please? 2.3

Recorded protein stability index for YKYCDHENAAFKDVALVLTVLLCE , please? 4.77

Recorded protein stability index for YKYCDHENAAFKDVALVHTVLLEE , please? 2.77

Recorded protein stability index for YKYCDHENAAFKDVAPVLTVLLEE , please? 2.36
